# System: KASUMI1
# assay: area under dose-response curve (cell viability) (AUC (arbitrary, % viability x log concentration)); higher = less sensitive (more viable)
# testContext: 4 days
Where a name gives a salt, the structure may show the parent alone.
area under dose-response curve overview
Please state the value as a number alone, without comment.

Example cases with answers are listed next.
Consider CC(C)C[C@@H](C=O)NC(=O)[C@H](CC(C)C)NC(=O)[C@H](CC(C)C)NC(=O)OCc1ccccc1 [MG132] . Its measured area under dose-response curve is 484

Consider CC[C@@H]1C(=O)N(C)c2cnc(Nc3ccc(C(=O)NC4CCN(C)CC4)cc3OC)nc2N1C1CCCC1 [BI-2536] . Its measured area under dose-response curve is 118

Consider CCC1=C[C@@H]2CN(C1)Cc1c([nH]c3ccccc13)[C@@](C(=O)OC)(c1cc3c(cc1OC)N(C)[C@H]1[C@@](O)(C(=O)OC)[C@H](OC(C)=O)[C@]4(CC)C=CCN5CC[C@]31[C@@H]54)C2 [Vinorelbine tartrate] . Its measured area under dose-response curve is 303

Consider COc1cc2nccc(Oc3ccc(NC(=O)NC4CC4)c(Cl)c3)c2cc1C(N)=O [E7080] . Its measured area under dose-response curve is 515

More entries:
Consider N[C@@H](Cc1ccc(N(CCCl)CCCl)cc1)C(=O)O [Melphalan] . Its measured area under dose-response curve is 610

Consider CC(=O)c1c(C)c2cnc(Nc3ccc(N4CCNCC4)cn3)nc2n(C2CCCC2)c1=O . Its measured area under dose-response curve is 452

---

# Tested on: THP-1
# assay: IC50 (cell viability) (log10 M)
# testContext: 4 days
Structures can show the parent of a compound that is named as a salt.
measure: IC50 (log10 M)

THP-1 assay, compound CC(=O)Nc1cccc(-n2c(=O)n(C3CC3)c(=O)c3c(Nc4ccc(I)cc4F)n(C)c(=O)c(C)c32)c1 , recorded IC50 (log10 M) = > -5

THP-1 assay, compound CN1CCN(CCOc2cc(OC3CCOCC3)c3c(Nc4c(Cl)ccc5c4OCO5)ncnc3c2)CC1 , recorded IC50 (log10 M) = > -5

THP-1 assay, compound c1cc(-c2sc(-c3ccncc3)c(-c3ccncc3)c2-c2ccncc2)ccn1 , recorded IC50 (log10 M) = > -5

THP-1 assay, compound CC[C@]1(O)C[C@H]2CN(CCc3c([nH]c4ccccc34)[C@@](C(=O)OC)(c3cc4c(cc3OC)N(C=O)[C@H]3[C@@](O)(C(=O)OC)[C@H](OC(C)=O)[C@]5(CC)C=CCN6CC[C@]43[C@@H]65)C2)C1 [Vincristine sulfate] , recorded IC50 (log10 M) = < -8.48

More entries:
THP-1 assay, compound NC(=O)c1ccc2nc(-c3ccc(Oc4ccc(Cl)cc4)cc3)[nH]c2c1 , recorded IC50 (log10 M) = > -5

THP-1 assay, compound COc1cc2ncnc(Nc3ccc(F)c(Cl)c3)c2cc1OCCCN1CCOCC1 , recorded IC50 (log10 M) = > -5

THP-1 assay, compound Cc1ccccc1-n1c(Cn2cnc3c(N)ncnc32)nc2cccc(C)c2c1=O , recorded IC50 (log10 M) = > -5

THP-1 assay, compound Cc1ccc(Nc2nccc(N(C)c3ccc4c(C)n(C)nc4c3)n2)cc1S(N)(=O)=O , recorded IC50 (log10 M) = > -5

// data source = the supplement of paper PMC5752671
